Below, each of the molecules is paired with its reported residual activity value.
target-system: IRAK4 (human) (UniProt Q9NWZ3)
Sequence (Q9NWZ3 whole entry, looked up): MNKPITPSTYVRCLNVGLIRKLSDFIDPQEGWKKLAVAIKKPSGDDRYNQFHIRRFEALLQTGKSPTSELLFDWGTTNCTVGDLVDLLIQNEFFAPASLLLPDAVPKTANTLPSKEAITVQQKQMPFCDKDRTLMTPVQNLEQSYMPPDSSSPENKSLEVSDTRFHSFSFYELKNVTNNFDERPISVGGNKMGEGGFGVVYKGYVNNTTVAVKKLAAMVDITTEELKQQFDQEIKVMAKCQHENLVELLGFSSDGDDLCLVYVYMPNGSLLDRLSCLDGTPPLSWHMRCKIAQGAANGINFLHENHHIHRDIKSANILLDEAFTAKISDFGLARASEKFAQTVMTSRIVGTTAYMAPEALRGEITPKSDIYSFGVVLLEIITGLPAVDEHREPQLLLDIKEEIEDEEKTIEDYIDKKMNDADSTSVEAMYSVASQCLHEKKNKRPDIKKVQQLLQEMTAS
experiment-summary: radiometric filter-binding kinase assay
condition: compound 10.0 µM
Numeric only. Scale: %

residual activity measured on CC1=C(CO)C(=O)O[C@@H]([C@@H](C)[C@H]2CC[C@H]3[C@@H]4C[C@H]5O[C@]56[C@@H](O)C=CC(=O)[C@]6(C)C4CC[C@]23C)C1 (some centres undefined) = 79

====

target-system: SIK2 (human)
experiment-summary: radiometric filter-binding kinase assay
condition: compound 1.0 µM
Below, each of the molecules is paired with its reported residual activity value.
Give the number first and the unit second.

Reference set (3 entries):
> print(dat)
                                   molecule  experimental.value
1  COc1cc(C(=O)N2CCOCC2)c(F)cc1Nc1ncc(C(F)(F)F)c(NC2CC2)n1                 84%
2  Nc1cccc2c1CN(C1CCC(=O)NC1=O)C2=O (centres undefined)                 83%
3  NCC(=O)Nc1ccc(-n2nc(C(F)(F)F)cc2-c2ccc3c(ccc4ccccc43)c2)cc1                 95%

Okay, next one:
residual activity measured on CCn1c(-c2nonc2N)nc2cncc(CNC3CCNCC3)c21 = 93%

====

System: AKT2 (human), P31751 [S474D]
Sequence (P31751 whole entry S474D, looked up): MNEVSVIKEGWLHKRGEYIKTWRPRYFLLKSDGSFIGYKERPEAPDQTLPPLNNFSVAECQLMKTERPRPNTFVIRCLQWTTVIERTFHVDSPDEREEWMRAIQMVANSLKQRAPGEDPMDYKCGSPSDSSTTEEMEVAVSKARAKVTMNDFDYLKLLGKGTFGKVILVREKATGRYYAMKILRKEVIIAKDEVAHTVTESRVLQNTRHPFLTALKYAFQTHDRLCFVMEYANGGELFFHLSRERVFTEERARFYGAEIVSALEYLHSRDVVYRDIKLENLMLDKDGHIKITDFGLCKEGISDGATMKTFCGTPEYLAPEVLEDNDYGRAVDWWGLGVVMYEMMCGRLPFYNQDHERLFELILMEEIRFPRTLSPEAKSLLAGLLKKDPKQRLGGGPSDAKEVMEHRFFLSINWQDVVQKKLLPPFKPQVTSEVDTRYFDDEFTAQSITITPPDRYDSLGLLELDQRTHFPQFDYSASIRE
experiment-summary: radiometric filter-binding kinase assay
condition: compound 1.0 µM
observation-type: residual activity (%)
Numeric only. Scale: %

Reference set (3 entries):
> print(dat)
                                   molecule  unit.text  experimental.value
1  c1ccc2c(-c3cnn4cc(-c5ccc(N6CCNCC6)cc5)cnc34)ccnc2c1          %                  91
2  CCCCCc1ccc(/C=C/[C@H](O)[C@@H](CO)NC)cc1          %                  90
3  O=C1Nc2nc(-c3c(O)cccc3OCC3CC3)cc(C3CCCNC3)c2CO1 (centres undefined)          %                  88

Okay, next one:
// returns residual activity for Cc1ccc(-c2ccc3c(ccc4sc5c(c43)NC[C@@H](C)NC5=O)n2)cn1 with AKT2 (human), P31751 [S474D]; value = 90

====

target-system: BRSK2 (human)
experiment-summary: radiometric filter-binding kinase assay
condition: compound 10.0 µM
observation-type: residual activity
Give the number first and the unit second.

> print(dat)
                      smiles.representation  experimental.value
1  CCCCCc1ccc(/C=C/[C@H](O)[C@@H](CO)NC)cc1                108%

residual activity measured on NC1(c2ccc(-c3nc4ccn5c(=O)[nH]nc5c4cc3-c3ccccc3)cc2)CCC1 = 94%

residual activity measured on Oc1ccc2ccccc2c1SSc1c(O)ccc2ccccc12 = 48%

====

target-system: AURKB (human) (UniProt Q96GD4)
Sequence (Q96GD4 whole entry, looked up): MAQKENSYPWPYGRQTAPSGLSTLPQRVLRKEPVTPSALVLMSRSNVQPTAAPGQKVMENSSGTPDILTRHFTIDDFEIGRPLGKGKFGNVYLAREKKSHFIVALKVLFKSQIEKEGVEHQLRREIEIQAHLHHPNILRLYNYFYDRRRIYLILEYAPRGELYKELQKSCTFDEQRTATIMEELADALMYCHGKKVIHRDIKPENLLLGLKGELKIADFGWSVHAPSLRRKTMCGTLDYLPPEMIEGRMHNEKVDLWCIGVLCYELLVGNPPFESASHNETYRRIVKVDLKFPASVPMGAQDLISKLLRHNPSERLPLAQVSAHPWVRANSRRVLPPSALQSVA
experiment-summary: radiometric filter-binding kinase assay
condition: compound 1.0 µM
observation-type: residual activity (%)
Numeric only. Scale: %

residual activity measured on O=c1c(O)c(-c2ccc(O)c(O)c2)oc2cc(O)c(O)c(O)c12 = 62

residual activity measured on COc1cc2ncn(-c3cc(OCc4ccccc4S(C)(=O)=O)c(C#N)s3)c2cc1OC = 6

residual activity measured on Cn1c(=O)c2c(ncn2C)n(C)c1=O = 83

residual activity measured on CCc1cncnc1N1CCN(Cc2nc3cc(C(F)(F)F)ccc3[nH]2)CC1 = 87

residual activity measured on CCNc1nc(Nc2cc(F)c(C(=O)N3CCOCC3)cc2OC)ncc1C(F)(F)F = 55

residual activity measured on CCn1c(-c2nonc2N)nc2cncc(CNC3CCNCC3)c21 = 76
